system: HT-29; experiment: NCI tumour cell line growth inhibition, 48 h
The source made the active and inactive calls. Rule as the data show it: active = GI50 up to about 1.1 µM and inactive = higher.
value kind: GI50

Solved cases (2 shown):
• N#Cc1c(N2CCN(c3ccc([N+](=O)[O-])cc3)CC2)[n+]([O-])c2ccc(Cl)cc2[n+]1[O-] = 1.31 µM (inactive)
• Cc1ccc(NC2=NCCO2)c2c1CCC2 = 33.3 µM (inactive)

Lab book: GI50 of O=C1C(Cl)C(c2cc3cc(Br)ccc3nc2Cl)N1c1ccc(Cl)cc1 (configuration not stated) noted as 7.16 µM (inactive)

Please fill in: GI50 reported for Cc1noc2cccc(O)c12 = > 100 µM (inactive)

----------
test system: CCRF-CEM; experiment: NCI tumour cell line growth inhibition, 48 h
Activity calls are given as the source filed them. Cut-off read from the data, not from the text of the source: active = GI50 up to about 1.1 µM and inactive = higher.
The reply should name one outcome from yes (1) for active, no (0) for inactive

Field: example entries. Status: answers known.
- COc1cc(/C=C/C2=C(C#N)C(=O)OC2(C)C)ccc1O: no (0)
- COc1ccc(C[C@H]2COC(=O)[C@@H]2Cc2cc(OC)c(OC)c(OC)c2)cc1OC: no (0)
- COc1ccc(-c2nnc3n(Cc4ccccc4)c4ccccc4n3c2=O)cc1: no (0)
- CC1C[C@]2(C[C@@H](C)C(=O)O2)OC2CC3(C)C4CCC5C(C)(C)OC(=O)CC[C@@]56C[C@@]46CC[C@]3(C)C12 (some centres undefined): no (0)
- CC1(Sc2ccccc2)CN(Cc2ccccc2)C1=O (centres undefined): no (0)

Recorded call for COC(=O)/C1=C/C2CC(/C=C(/c3ccccc3)C(=O)O1)C2 ?
no (0)

----------
tested on: SR; test: NCI tumour cell line growth inhibition, 48 h
Active and inactive are the calls of the source. Cut-off read from the data, not from the text of the source: active = GI50 up to about 1.1 µM and inactive = higher.
value kind: GI50

- COc1cc(Nc2nc3ccc(C(F)(F)F)cc3nc2-c2ccccc2)cc(OC)c1OC: 8.3 µM (inactive)
- COC(CN(C(C)=O)C1CCC2(SCCS2)c2[nH]c3ccccc3c21)OC (stereo unspecified): 57.9 µM (inactive)
- C#CC(C)(C)Oc1cc(O)c2c(=O)c3ccccc3n(C)c2c1: 17.3 µM (inactive)
- C[C@H](N)C(=O)Nc1ccc(-c2nc3ccccc3s2)cc1: 15.1 µM (inactive)
- O=C1N[C@H]2C(=O)c3c(Cl)sc(Cl)c3[C@H]2O1: 2.56 µM (inactive)

In plain terms, Cc1nc2ccc(Br)cc2c(=O)n1-c1nnc(C(C)(C)C)s1 has a documented GI50 of > 10 µM (inactive)

----------
test system: IGROV-1; test: NCI tumour cell line growth inhibition, 48 h
Active and inactive are the calls of the source. Cut-off read from the data, not from the text of the source: active = GI50 up to about 1.1 µM and inactive = higher.
Write down one outcome, taken from class 1 = active, class 0 = inactive

Use the examples below as a reference point.
• CCOC(=O)c1ccc(N[C@@H]2c3cc4c(cc3C(c3cc(OC)c(O)c(OC)c3)[C@H]3C(=O)OCC32)OCO4)cc1 (some centres undefined) = class 0
• C#CC[C@@]12CC(=O)C[C@@H]1CCC1(C2)OCCO1.C#CC[C@]12CC(=O)CC[C@H]1CC(=O)C2 = class 0
• O=C1c2c(Br)sc(Br)c2[C@@H](NC(=O)C(F)(F)F)C1Br (some centres undefined) = class 0

So what was the verdict on O=C(O)CN(CCNC(=O)OCC1c2ccccc2-c2ccccc21)CCNC(=O)OCC1c2ccccc2-c2ccccc21 in this test?
class 0

What outcome does the record of this test show for COc1cc(Nc2nc3cc(C)ccc3nc2-c2ccccc2)cc(OC)c1OC ?
class 0

Give the logged outcome of this assay for the following compound: C#CCN(N=O)C(=O)NCCCCC(NC(=O)OCc1ccccc1)C(=O)OCc1ccccc1 (centres undefined)
class 0

In this assay, the call recorded for CC(=O)CC1CCC(=O)/C=C/C(=O)OC(CC(C)=O)CCC(=O)/C=C/C(=O)O1 (centres undefined) was what?
class 0

Which outcome was assigned to O=S(=O)(O)C(Cc1nc2ccccc2[nH]1)S(=O)(=O)OCCC1S(=O)(=O)OCCOS1(=O)=O (centres undefined) in this test?
class 0

Can you look up the reported call for Cc1c(-c2ccc(O)cc2)n(CCCCCCNCCOC(=O)NCCCc2ccc(N(CCCl)CCCl)cc2)c2ccc(O)cc12 for me?
class 0

----------
system: SN12C; assay: NCI tumour cell line growth inhibition, 48 h
Calls of active or inactive are those of the source. Cut-off read from the data, not from the text of the source: active = GI50 up to about 1.1 µM and inactive = higher.
In this exercise, the only acceptable responses are active, inactive

# example entries with known answers
• O=[N+]([O-])c1ccc(N=P(c2ccccc2)(c2ccccc2)c2ccccc2)n2nnnc12 = inactive
• CN(C)c1c(C2CC(O)C(CO)O2)c(=O)c1=O (stereo unspecified) = inactive
• O=C(Cc1ccccc1)NN1C(=O)C(Cl)C1c1cccc([N+](=O)[O-])c1 (stereo unspecified) = inactive
• CNS(=O)(=O)NN(C)S(=O)(=O)c1ccc(OC)cc1 = inactive
• O=C1c2ccccc2-c2nnc(-c3ccc([N+](=O)[O-])cc3)cc21 = inactive
• O=C(Cc1ccccc1)NNc1nc(NNC(=O)c2ccncc2)nc(Nc2ccccc2)n1 = inactive
• COc1ccc2nc(-c3cccc(N(C)C)c3)cc(O)c2c1 = active
• CN(C)CCNC(=O)c1ccc2nc3c(nc2c1)C(=O)c1ccccc1-3 = inactive
• COCOc1ccc(C(=O)C(C)c2ccc(OCOC)cc2OCOC)c(O)c1 (stereo unspecified) = inactive
• Clc1ccccc1-c1nnc2c(-c3ccccc3)nc3ccccc3n12 = inactive

We next turn to a different molecule, shown below.
Could you please tell me the result logged for CCCCCCCCCCCCc1ccc(S(=O)(=O)O)cc1 in this assay?
inactive

----------
test system: OVCAR-4; experiment: NCI tumour cell line growth inhibition, 48 h
Active and inactive are the calls of the source. Rule as the data show it: active = GI50 up to about 1.1 µM and inactive = higher.
A correct response names exactly one class from 1.0 (active), 0.0 (inactive)

- CC(=O)OC1(C)N=NC2(CCCCC2)O1 (stereo unspecified): 0.0
- O=C(C(Cl)=C(Nc1ccccc1)Nc1ccccc1)C(Cl)Cl: 0.0
- CCOC(=O)c1ccc(N[C@@H]2c3cc4c(cc3C(c3cc(OC)c(O)c(OC)c3)[C@H]3C(=O)OCC32)OCO4)cc1 (stereo partly specified): 0.0
- COc1cc(OC)cc(-n2c(N)c(-c3nc4ccccc4s3)c3ccc([N+](=O)[O-])cc3c2=O)c1: 0.0
- c1ccc2c(c1)c1c(n2CCOCCN2CCCC2)CCCC1: 0.0

Any idea what this test logged for COc1ccc(-c2c(N)n(-c3cc(OC)cc(OC)c3)c(=O)c3cc([N+](=O)[O-])ccc23)cc1 ?
0.0

Answer briefly: the call reported for CCC(C)C(C(=O)N/N=C1/SCC(=O)N1c1ccccc1)C(=O)N/N=C1/SCC(=O)N1c1ccccc1 (stereo unspecified) in this assay.
0.0

In this assay, the call recorded for C#CC(C)(C)Oc1cc(O)c2c(=O)c3ccccc3n(C)c2c1 was what?
0.0

Per the records of this test, what outcome belongs to O=C1NC(c2cccc3ccccc23)Nc2ccc(Cl)cc21 (stereo unspecified) ?
1.0

State the result this test recorded for CCO/C=C\C12CCCC1NC(c1ccccc1)(c1ccccc1)O2 (stereo unspecified) .
0.0

Recorded test outcome, item CC1=CCCC(C)(O)C2CC(CCC3(C)OC3CC1)C(C)C(=O)O2 (stereo unspecified)
0.0

Call for entry CC(C)=CC(=O)Oc1ccc([N+](=O)[O-])cc1 :
0.0

Please state the recorded outcome for this compound: CC1CCC(O)C(C(O)CC2CC(=O)N(C)C(=O)C2)C1 (stereo unspecified)
0.0

----------
test system: OVCAR-8; experiment: NCI tumour cell line growth inhibition, 48 h
Activity calls are given as the source filed them. Cut-off read from the data, not from the text of the source: active = GI50 up to about 1.1 µM and inactive = higher.
Entries annotated with measured GI50

Below, each entry is followed by its recorded GI50 result.
- COC(=O)c1c(C)cccc1C1CN=NC12Cc1ccccc1C2=O (stereo not drawn): > 100 µM (inactive)
- CN(C)CCCNC(=O)c1cc2/c(=C\c3ccc(N(C)C)cc3)c3ccccc3n2[n+]1C: 40.8 µM (inactive)

Looking up Cc1ncc([N+](=O)[O-])n1CCNCCCn1ccnc1[N+](=O)[O-] , I see its GI50 listed as > 100 µM (inactive)

----------
test system: OVCAR-8; assay: NCI tumour cell line growth inhibition, 48 h
Activity calls are given as the source filed them. Cut-off read from the data, not from the text of the source: active = GI50 up to about 1.1 µM and inactive = higher.
value kind: GI50

Some molecules with recorded GI50:
* Nc1nc(NCC2(CO)CC2)cc(=O)[nH]1 | > 100 µM (inactive)
* C=C1CC(Cn2ccc(=O)[nH]c2=O)(c2ccc(Cl)cc2)OC1=O (stereo not drawn) | 7.87 µM (inactive)
* CC12CC3c4ccccc4CN1C3(c1ccccc1)OC2=O (stereo not drawn) | > 100 µM (inactive)
* COC1C=CC(O)C(CO)O1 (stereo not drawn) | > 100 µM (inactive)
* NNC(=O)C(O)C(O)C(O)CO (stereo not drawn) | > 100 µM (inactive)
* CCc1nc2ccc(C(F)(F)F)cc2[nH]c1=O | > 100 µM (inactive)
* N/C(=N\O)N/N=C\c1cc([N+](=O)[O-])cc([N+](=O)[O-])c1O | 6.11 µM (inactive)

Switching to the query record.
Record O=C(O)CSc1nnc(Cc2ccccc2)[nH]1 / OVCAR-8, GI50 recorded as > 100 µM (inactive)
